// provenance: patent US20260193326A1

Please go through the items and note down their koff.
molecular target: AAV9 (adeno-associated virus serotype 9); assay: SPR, AAV on CM5 chip
Output spec: scalar in s⁻¹, unitless text.

Q: Find the recorded koff belonging to A4-C8 (bispecific antibody) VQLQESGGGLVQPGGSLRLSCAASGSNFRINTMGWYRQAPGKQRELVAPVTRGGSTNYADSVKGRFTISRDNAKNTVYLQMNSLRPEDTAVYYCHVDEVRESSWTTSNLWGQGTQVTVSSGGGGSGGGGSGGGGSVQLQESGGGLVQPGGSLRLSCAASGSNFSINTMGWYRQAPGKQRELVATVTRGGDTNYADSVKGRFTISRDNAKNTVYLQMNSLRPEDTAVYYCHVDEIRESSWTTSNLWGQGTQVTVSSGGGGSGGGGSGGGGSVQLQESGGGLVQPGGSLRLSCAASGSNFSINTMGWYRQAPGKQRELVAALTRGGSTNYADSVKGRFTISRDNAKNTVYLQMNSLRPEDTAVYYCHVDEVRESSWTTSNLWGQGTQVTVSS and report it.
A: 5e-05

Q: Find the recorded koff belonging to A4-C9 (bispecific antibody) VQLQESGGGLVQPGGSLRLSCAASGSNFSINTMGWYRQAPGKQRELVATVTRGGDTNYADSVKGRFTISRDNAKNTVYLQMNSLRPEDTAVYYCHVDEIRESSWTTSNLWGQGTQVTVSSGGGGSGGGGSGGGGSVQLQESGGGLVQPGGSLRLSCAASGSNFSINTMGWYRQAPGKQRELVAALTRGGSTNYADSVKGRFTISRDNAKNTVYLQMNSLRPEDTAVYYCHVDEVRESSWTTSNLWGQGTQVTVSSGGGGSGGGGSGGGGSVQLQESGGGLVQPGGSLRLSCAASGSNFRINTMGWYRQAPGKQRELVAPVTRGGSTNYADSVKGRFTISRDNAKNTVYLQMNSLRPEDTAVYYCHVDEVRESSWTTSNLWGQGTQVTVSS and report it.
A: 0.00013
